system: Human alphaherpesvirus 1; experiment: Inhibition of plaque formation in monolayers of HSV-1 KOS (TK+)Vero cells by 50%; assay type: functional, organism-based; settings: Human alphaherpesvirus 1, Vero
Observable: pEC50
One number for each entry, as −log10 of the molar value.

Entry N#CNC(CBr)c1cn([C@H]2C[C@H](O)[C@@H](CO)O2)c(=O)[nH]c1=O (stereo partly specified) has what pEC50? 5.18

----------
system: Human alphaherpesvirus 1; experiment: Inhibition of plaque formation in monolayers of HSV-1 KOS Vero cells by 50%; format: functional, organism-based; conditions: Human alphaherpesvirus 1, Vero
Observable: EC50 (µM)
One number for each entry, in µM.

Compound | Observable | Readout Value
O=c1[nH]c(=O)n([C@H]2C[C@H](O)[C@@H](CO)O2)cc1/C=C/Br [BRIVUDINE] | EC50 | 1.5

Look up EC50 for the entries below, preserving their order.
1. Nc1nc2c(ncn2COCCO)c(=O)[nH]1 [ACYCLOVIR]
2. N#CNC(CBr)c1cn(C2O[C@H](CO)[C@@H](O)[C@@H]2O)c(=O)[nH]c1=O (stereo partly drawn)

[2.2, 62.5]

Hi team, please reply with EC50 for each item in this list.
1. N#CNC(CCl)c1cn([C@H]2C[C@H](O)[C@@H](CO)O2)c(=O)[nH]c1=O (stereo partly drawn)
2. CCc1cn([C@H]2C[C@H](O)[C@@H](CO)O2)c(=O)[nH]c1=O [EDOXUDINE]
3. N#CNC(CI)c1cn(C2O[C@H](CO)[C@@H](O)[C@@H]2O)c(=O)[nH]c1=O (stereo partly drawn)

1. 37.5
2. 19.5
3. 22.8

----------
I'd appreciate it if you could supply EC50 values for the items below.
system: Human alphaherpesvirus 1; experiment: Inhibition of plaque formation in monolayers of HSV-1 E-377 Vero cells by 50%; assay type: functional, organism-based; details: Human alphaherpesvirus 1, Vero
Answers are plain numbers, in µM.

Take a look at these entries with their results.
Molecule | Unit String | EC50
O=c1[nH]c(=O)n([C@H]2C[C@H](O)[C@@H](CO)O2)cc1/C=C/Br | µM | 2.7
CCc1cn([C@H]2C[C@H](O)[C@@H](CO)O2)c(=O)[nH]c1=O | µM | 42.9

For each entry beneath this line, provide reported EC50.
1. N#CNC(CCl)c1cn([C@H]2C[C@H](O)[C@@H](CO)O2)c(=O)[nH]c1=O (stereo partly drawn)
2. Nc1nc2c(ncn2COCCO)c(=O)[nH]1

1: 210; 2: 4.4

----------
tested on: Human alphaherpesvirus 1; test: Inhibition of plaque formation in monolayers of HSV-1 E-377 Vero cells by 50%; assay type: functional, organism-based; details: Human alphaherpesvirus 1, Vero
pEC50: −log10 of the molar value.
Observable: pEC50

Molecule | Experimental System | Readout Value
COC(CN=[N+]=[N-])c1cn([C@H]2C[C@H](O)[C@@H](CO)O2)c(=O)[nH]c1=O (some centres undefined) | Human alphaherpesvirus 1 | < 3.52

Okay, here is my list. What is pEC50 for each of these?
1. N#CNC(CBr)c1cn(C2O[C@H](CO)[C@@H](O)[C@@H]2O)c(=O)[nH]c1=O (some centres undefined)
2. N#CNC(CI)c1cn(C2O[C@H](CO)[C@@H](O)[C@@H]2O)c(=O)[nH]c1=O (some centres undefined)
3. [N-]=[N+]=NCC(O)c1cn([C@H]2C[C@H](O)[C@@H](CO)O2)c(=O)[nH]c1=O (some centres undefined)

< 3.59
< 3.64
< 3.49

Hey, just so you know, these numbers are from ChEMBL document CHEMBL1134633.
